# System: V79
# protocol-notes: Clonogenic survival of 97% V79 NTRoua cells in co-cultures with 3% V79 NTRpuro cells after 5 hrs by MCL assay
# Assay type: functional, Cricetulus griseus
Given measured Activity, output Y if it is greater than or equal to 200 µM and N if not.

Problem: Please tell me: is the compound `O=C(NCCO)c1cc(N(CCCl)CCCl)c([N+](=O)[O-])cc1[N+](=O)[O-]` at or over 200 µM in terms of Activity?
Result: Y

Problem: Please tell me: is the compound `NC(=O)c1cc(N2CC2)c([N+](=O)[O-])cc1[N+](=O)[O-]` at or over 200 µM in terms of Activity?
Result: N

Problem: Please tell me: is the compound O=C(NCC(O)CO)c1cc(N(CCBr)CCBr)c([N+](=O)[O-])cc1[N+](=O)[O-] (centres undefined) at or over 200 µM in terms of Activity?
Result: N

Problem: Please tell me: is the compound `NC(=O)c1cc(N(CCI)CCI)c([N+](=O)[O-])cc1[N+](=O)[O-]` at or over 200 µM in terms of Activity?
Result: N

Problem: Please tell me: is the compound `NC(=O)c1cc(N(CCCl)CCCl)c([N+](=O)[O-])cc1[N+](=O)[O-]` at or over 200 µM in terms of Activity?
Result: N

* * *

# Test system: V79
# protocol-notes: Antiproliferative activity against chinese hamster wild-type V79 NTR-ve cells after 18 hrs
# Assay type: functional, cell-based
# recorded-conditions: Cricetulus griseus, V79, 18 h
reported-endpoint: IC50 (µM)
Give bare numbers, in µM.

Illustrative cases are given below, each with its answer.
molecule: CS(=O)(=O)c1cc([N+](=O)[O-])c(C(N)=O)cc1N(CCCl)CCCl
IC50 [µM]: 767
--
molecule: CS(=O)(=O)OCCN(CCBr)c1cc(C(=O)NCC(O)CO)c([N+](=O)[O-])cc1[N+](=O)[O-] (stereo not drawn)
IC50 [µM]: 733

Hi, could you look up IC50 for each item in my list?
1. CC(O)CNC(=O)c1cc(N(CCCl)CCCl)c([N+](=O)[O-])cc1[N+](=O)[O-] (stereo not drawn)
2. O=C(NCCCN1CCOCC1)c1cc(N(CCBr)CCBr)c([N+](=O)[O-])cc1[N+](=O)[O-]

Result:
1. 438
2. 148

Hi, could you look up IC50 for each item in my list?
1. CS(=O)(=O)OCCN(CCOS(C)(=O)=O)c1cc(C(N)=O)c([N+](=O)[O-])cc1[N+](=O)[O-]
2. O=C(NCCO)c1cc(N(CCCl)CCCl)c([N+](=O)[O-])cc1[N+](=O)[O-]
3. NC(=O)c1cc(N(CCBr)CCBr)c([N+](=O)[O-])cc1[N+](=O)[O-]
4. O=C(NCCCO)c1cc(N(CCCl)CCCl)c([N+](=O)[O-])cc1[N+](=O)[O-]
5. O=C(NCCCCN1CCOCC1)c1cc(N(CCCl)CCCl)c([N+](=O)[O-])cc1[N+](=O)[O-]
6. O=C(O)CCNC(=O)c1cc(N(CCBr)CCBr)c([N+](=O)[O-])cc1[N+](=O)[O-]

Result:
1: 536; 2: 312; 3: 43; 4: 555; 5: 142; 6: 54

Hi, could you look up IC50 for each item in my list?
1. O=C(O)CCNC(=O)c1cc(N(CCCl)CCCl)c([N+](=O)[O-])cc1[N+](=O)[O-]
2. O=C(NCCCO)c1cc(N(CCBr)CCBr)c([N+](=O)[O-])cc1[N+](=O)[O-]
3. O=C(NCC(O)CO)c1cc(N(CCBr)CCBr)c([N+](=O)[O-])cc1[N+](=O)[O-] (stereo not drawn)
4. O=C(NCCN1CCOCC1)c1cc(N(CCCl)CCCl)c([N+](=O)[O-])cc1[N+](=O)[O-]
5. NCCNC(=O)c1cc(N(CCCl)CCCl)c([N+](=O)[O-])cc1[N+](=O)[O-]
6. O=C(NCCO)c1cc(N(CCBr)CCBr)c([N+](=O)[O-])cc1[N+](=O)[O-]

Result:
1. 4890
2. 37
3. 275
4. 201
5. 462
6. 80

Hi, could you look up IC50 for each item in my list?
1. CN(C)CCNC(=O)c1cc(N(CCCl)CCCl)c([N+](=O)[O-])cc1[N+](=O)[O-]
2. NC(=O)c1cc(N(CCI)CCI)c([N+](=O)[O-])cc1[N+](=O)[O-]
3. O=C(NO)c1cc(N(CCCl)CCCl)c([N+](=O)[O-])cc1[N+](=O)[O-]
4. CS(=O)(=O)c1cc([N+](=O)[O-])c(C(N)=O)cc1N(CCBr)CCBr
5. CS(=O)(=O)OCCN(CCI)c1cc(C(N)=O)c([N+](=O)[O-])cc1[N+](=O)[O-]

Result:
89
11
51
80
101

Hi, could you look up IC50 for each item in my list?
1. NC(=O)c1cc(N(CCCl)CCCl)c([N+](=O)[O-])cc1[N+](=O)[O-]
2. CS(=O)(=O)OCCN(CCOS(C)(=O)=O)c1cc(C(=O)NCC(O)CO)c([N+](=O)[O-])cc1[N+](=O)[O-] (stereo not drawn)
3. O=C(NO)c1cc(N(CCBr)CCBr)c([N+](=O)[O-])cc1[N+](=O)[O-]
4. CS(=O)(=O)NC(=O)c1cc(N(CCCl)CCCl)c([N+](=O)[O-])cc1[N+](=O)[O-]

Result:
490
237
34
328

Hi, could you look up IC50 for each item in my list?
1. NC(=O)c1cc(N2CC2)c([N+](=O)[O-])cc1[N+](=O)[O-]
2. COC(=O)CCNC(=O)c1cc(N(CCBr)CCBr)c([N+](=O)[O-])cc1[N+](=O)[O-]
3. CS(=O)(=O)OCCN(CCBr)c1cc(C(=O)NO)c([N+](=O)[O-])cc1[N+](=O)[O-]
4. NC(=O)c1cc(N(CCOS(N)(=O)=O)CCOS(N)(=O)=O)c([N+](=O)[O-])cc1[N+](=O)[O-]
5. O=C(NCC(O)CO)c1cc(N(CCI)CCI)c([N+](=O)[O-])cc1[N+](=O)[O-] (stereo not drawn)
6. O=C(NCCn1ccnc1)c1cc(N(CCCl)CCCl)c([N+](=O)[O-])cc1[N+](=O)[O-]
7. CS(=O)(=O)OCCN(CCCl)c1cc(C(N)=O)c([N+](=O)[O-])cc1[N+](=O)[O-]

Result:
1: 374; 2: 52; 3: 97; 4: 650; 5: 114; 6: 273; 7: 504

This collection of values is drawn from ChEMBL document CHEMBL1142960.
